- Test system: Tel12 (DNA, G4) TAGGGTTAGGGT
- ASSAY TEXT: UV melting at 295 nm
- CONDITION CONTEXT: KCl 0.1 M; NaCacodylate 2.5 mM, pH 7.0; ligand 1.75 × 10^-5 M, Tel12 1.87 × 10^-5 M
A collection of compounds and their measured ΔTm
Write it as a number; the unit °C goes unstated.

Worked examples, 2 compounds total:
COc1ccc2c(CCCCCc3ccncc3)c3[n+](cc2c1OC)CCc1cc2c(cc1-3)OCO2 = 15.0
COc1ccc2c(CCCc3ccncc3)c3[n+](cc2c1OC)CCc1cc2c(cc1-3)OCO2 = 16.7

Observed ΔTm on Tel12 (DNA, G4) TAGGGTTAGGGT for `COc1ccc2c(CCCCc3ccncc3)c3[n+](cc2c1OC)CCc1cc2c(cc1-3)OCO2` , please.
8.7

Observed ΔTm on Tel12 (DNA, G4) TAGGGTTAGGGT for `COc1ccc2c(CCc3ccncc3)c3[n+](cc2c1OC)CCc1cc2c(cc1-3)OCO2` , please.
9.7

Observed ΔTm on Tel12 (DNA, G4) TAGGGTTAGGGT for `COc1ccc2c(Cc3ccncc3)c3[n+](cc2c1OC)CCc1cc2c(cc1-3)OCO2` , please.
14.4
